Cited source for all entries: the supplement of paper PMC9177965

# Test system: HT29 RNF43 G659fs (RNF43 659mut, CRISPR-edited)
# ASSAY COMMENT: cell viability activity relative to DMSO (negative = inhibition); higher = more viable cells (less growth inhibition)
# RUN PARAMETERS: 5 µM; 96 h
Decision: cell viability activity beneath -70% gives True; cell viability activity meeting or exceeding -70% gives False.

MOLECULE: COCCN1CCN(Cc2ccc(-c3n[nH]c4c3C(=O)c3c(NC(=O)NN5CCOCC5)cccc3-4)cc2)CC1
CLASSIFICATION: True
//
MOLECULE: COc1ccc(N(C)c2nc(C)nc3ccccc23)cc1
CLASSIFICATION: False
//
MOLECULE: O=C1NCCN1CCN1CCC(c2cn(-c3ccc(F)cc3)c3ccc(Cl)cc23)CC1
CLASSIFICATION: True
//
MOLECULE: CC(C)(C)c1ccc(-c2nc3ccccc3[nH]2)cc1
CLASSIFICATION: False
//
MOLECULE: C[C@@H](Oc1cc(-n2cnc3ccc(CN4CCN(C)CC4)cc32)sc1C(N)=O)c1ccccc1C(F)(F)F
CLASSIFICATION: True
//
MOLECULE: CCCCCCCCCc1ccc(OCCOCCOCCOCCOCCOCCOCCOCCOCCO)cc1
CLASSIFICATION: False
//
MOLECULE: COc1cc(F)c(F)c(Nc2ccc(I)cc2F)c1NS(=O)(=O)C1(C[C@H](O)CO)CC1
CLASSIFICATION: True
//
MOLECULE: COc1cc2ncnc(Nc3ccc(F)c(Cl)c3)c2cc1NC(=O)/C=C/CN1CCCCC1
CLASSIFICATION: True
//
MOLECULE: COc1cc(N2CCC(N3CCN(C)CC3)CC2)ccc1Nc1ncnc(Nc2ccccc2S(=O)(=O)C(C)C)n1
CLASSIFICATION: False
//
MOLECULE: NC1(c2ccc(-c3nc4ccn5c(=O)[nH]nc5c4cc3-c3ccccc3)cc2)CCC1
CLASSIFICATION: False
//
MOLECULE: CCCCCCCC(=O)N[C@H](CN1CCCC1)[C@H](O)c1ccc2c(c1)OCCO2
CLASSIFICATION: False
//
MOLECULE: COc1ccc2c(O[C@@H]3C[C@H]4C(=O)N[C@]5(C(=O)NS(=O)(=O)C6CC6)C[C@H]5/C=C\CCCCN(C)C(=O)[C@@H]4C3)cc(-c3nc(C(C)C)cs3)nc2c1C
CLASSIFICATION: False
//
MOLECULE: Nc1ccc(F)cc1NC(=O)c1ccc(CNC(=O)/C=C/c2cccnc2)cc1
CLASSIFICATION: False
//
MOLECULE: Cc1cnc(Nc2ccc(N3CCN(C)CC3)cc2)nc1Nc1cccc(S(=O)(=O)NC(C)(C)C)c1
CLASSIFICATION: True
//
MOLECULE: O=C(NC1CCN(CCCCC2(C(=O)NCC(F)(F)F)c3ccccc3-c3ccccc32)CC1)c1ccccc1-c1ccc(C(F)(F)F)cc1
CLASSIFICATION: True

###

# System: HT29 RNF43 G659fs (RNF43 659mut, CRISPR-edited)
# ASSAY COMMENT: cell viability activity relative to DMSO (negative = inhibition); higher = more viable cells (less growth inhibition)
# RUN PARAMETERS: 5 µM; 96 h

MOLECULE: N#Cc1cc2c(OCC(O)CN3CCN(C(c4ccccc4)c4ccccc4)CC3)cccc2[nH]1 (stereo not given)
cell viability activity / %: -23.9
--
MOLECULE: O=C(Nc1cc(C(F)(F)F)cc(C(F)(F)F)c1)c1cc(Cl)ccc1O
cell viability activity / %: -94.4
--
MOLECULE: O=c1[nH]cc(F)c(=O)[nH]1
cell viability activity / %: -32.3
--
MOLECULE: C=CC(=O)Nc1cccc(Sc2nc(Nc3ccc(N4CCN(C)CC4)cc3)ncc2Cl)c1
cell viability activity / %: -59.9
--
MOLECULE: Cc1c(C(=O)Nc2ccc(N3CCC(N4CCOCC4)CC3)c(C#N)c2)cnn1-c1ccc(Cl)cc1
cell viability activity / %: -36.4
